# System: PyIESI-1 RRM domain (Plasmodium yoelii PY17X_0911200 aa 795-956, GST fusion)
# Test Description: RBNS R-value (6-mer enrichment in protein-bound RNA vs input library) (ratio); higher = stronger binding preference
# Run Parameters: protein concentration: 500 nM
The full ranking holds about 4,100 sequences; the median of “RBNS R-value (6-mer enrichment in protein-bound RNA vs input library)” is about 0.96, and the highest 2% start at about 2.4. Shown is part of a subset that was picked to be rich in the highest values.
Measured Attribute: RBNS R-value
Answer field: number only, no words.

Biosequence	RBNS R-value
UGCGCU	1.25
AAUUGA	2.26
CGAUCC	1.22
AUUGAC	1.46
UUGAGA	1.32
UUUGAA	1.15
GGAUCC	0.922
CAUGGC	1.08

Request: Write down measured RBNS R-value (PyIESI-1 RRM domain (Plasmodium yoelii PY17X_0911200 aa 795-956, GST fusion)) for this sequence. "UGAUAA"
Response: 4.21

Request: Write down measured RBNS R-value (PyIESI-1 RRM domain (Plasmodium yoelii PY17X_0911200 aa 795-956, GST fusion)) for this sequence. "AUGAUU"
Response: 6.63

Request: Write down measured RBNS R-value (PyIESI-1 RRM domain (Plasmodium yoelii PY17X_0911200 aa 795-956, GST fusion)) for this sequence. "AGAUCU"
Response: 0.924

Request: Write down measured RBNS R-value (PyIESI-1 RRM domain (Plasmodium yoelii PY17X_0911200 aa 795-956, GST fusion)) for this sequence. "UAUUGA"
Response: 1.61

Request: Write down measured RBNS R-value (PyIESI-1 RRM domain (Plasmodium yoelii PY17X_0911200 aa 795-956, GST fusion)) for this sequence. "GGAUAG"
Response: 0.954

Request: Write down measured RBNS R-value (PyIESI-1 RRM domain (Plasmodium yoelii PY17X_0911200 aa 795-956, GST fusion)) for this sequence. "ACAUUG"
Response: 1.17

* * *

Attribute: RBNS R-value
# Test system: PyIESI-1 RRM domain (Plasmodium yoelii PY17X_0911200 aa 795-956, GST fusion)
# Test Description: RBNS R-value (6-mer enrichment in protein-bound RNA vs input library) (ratio); higher = stronger binding preference
# Run Parameters: protein concentration: 1000 nM
The full ranking holds about 4,100 sequences; the median of “RBNS R-value (6-mer enrichment in protein-bound RNA vs input library)” is about 0.96, and the highest 2% start at about 2.4. The sample holds the highest values, similar sequences and a random draw of the others, so the mix is not that of the screen.
Answer field: number only, no words.

Would you please look over these solved cases?
Biosequence	RBNS R-value
GCAGUG	1.12
UGCUUU	1.18
AGUGAC	1.02
GAUUCC	2.49
UAUUCU	0.734

Request: Identify RBNS R-value associated with the sequence "AAUUCU"
Response: 1.06

Request: Identify RBNS R-value associated with the sequence "AGUGAU"
Response: 3.56

* * *

# System: PyIESI-1 RRM domain (Plasmodium yoelii PY17X_0911200 aa 795-956, GST fusion)
# Test Description: RBNS R-value (6-mer enrichment in protein-bound RNA vs input library) (ratio); higher = stronger binding preference
# Run Parameters: protein concentration: 1000 nM
The full ranking holds about 4,100 sequences; the median of “RBNS R-value (6-mer enrichment in protein-bound RNA vs input library)” is about 0.96, and the highest 2% start at about 2.4. The list comes from a sample in which the highest values are over-represented; it also holds close analogues and randomly drawn sequences.
Attribute: RBNS R-value
Answer field: number only, no words.

Request: Identify RBNS R-value associated with the sequence "UAGUGG"
Response: 0.76

Request: Identify RBNS R-value associated with the sequence "GAUUUU"
Response: 3.56

Request: Identify RBNS R-value associated with the sequence "CAUUGC"
Response: 1.11

Request: Identify RBNS R-value associated with the sequence "CCGGUC"
Response: 0.916

Request: Identify RBNS R-value associated with the sequence "ACUGAG"
Response: 1.13

Request: Identify RBNS R-value associated with the sequence "AGAUAC"
Response: 1.09

Request: Identify RBNS R-value associated with the sequence "CAUUUA"
Response: 0.427

Request: Identify RBNS R-value associated with the sequence "GAUUGA"
Response: 3.05

Request: Identify RBNS R-value associated with the sequence "UGCCUC"
Response: 1.19

Request: Identify RBNS R-value associated with the sequence "UUCUUU"
Response: 1

* * *

# Test system: PyIESI-1 RRM domain (Plasmodium yoelii PY17X_0911200 aa 795-956, GST fusion)
# Test Description: RBNS R-value (6-mer enrichment in protein-bound RNA vs input library) (ratio); higher = stronger binding preference
# Run Parameters: protein concentration: 1000 nM
The full ranking holds about 4,100 sequences; the median of “RBNS R-value (6-mer enrichment in protein-bound RNA vs input library)” is about 0.96, and the highest 2% start at about 2.4. Many of the other results were omitted from the sample, so the highest values are more common in it than they were.
Lab note: anything with RBNS R-value at or over 0.9 counts as Fulfilled; the rest go in Not fulfilled.

Biosequence	Class Label
GACAUG	Fulfilled
GAUGCC	Fulfilled
ACCCAG	Fulfilled
UUUACC	Not fulfilled
GUUGAU	Fulfilled
CUUGAU	Fulfilled
AAAGCA	Not fulfilled
CUGACC	Fulfilled

Request: Dear colleague, could you confirm whether "UAUGCC" has RBNS R-value at or above 0.9?
Response: Not fulfilled

Request: Dear colleague, could you confirm whether "AAUCCC" has RBNS R-value at or above 0.9?
Response: Fulfilled

Request: Dear colleague, could you confirm whether "AGGAUU" has RBNS R-value at or above 0.9?
Response: Fulfilled

Request: Dear colleague, could you confirm whether "ACACUC" has RBNS R-value at or above 0.9?
Response: Fulfilled

Request: Dear colleague, could you confirm whether "UGAUAG" has RBNS R-value at or above 0.9?
Response: Fulfilled

Request: Dear colleague, could you confirm whether "CGUACU" has RBNS R-value at or above 0.9?
Response: Not fulfilled

Request: Dear colleague, could you confirm whether "GACCAG" has RBNS R-value at or above 0.9?
Response: Fulfilled

Request: Dear colleague, could you confirm whether "UGAUGU" has RBNS R-value at or above 0.9?
Response: Fulfilled

Request: Dear colleague, could you confirm whether "CCAAAA" has RBNS R-value at or above 0.9?
Response: Fulfilled

Request: Dear colleague, could you confirm whether "AAUUAA" has RBNS R-value at or above 0.9?
Response: Not fulfilled

Request: Dear colleague, could you confirm whether "AGAUGC" has RBNS R-value at or above 0.9?
Response: Fulfilled

Request: Dear colleague, could you confirm whether "GGAUAU" has RBNS R-value at or above 0.9?
Response: Not fulfilled

Request: Dear colleague, could you confirm whether "GGGUUU" has RBNS R-value at or above 0.9?
Response: Fulfilled

Request: Dear colleague, could you confirm whether "ACUGCG" has RBNS R-value at or above 0.9?
Response: Fulfilled

Request: Dear colleague, could you confirm whether "GUAAGU" has RBNS R-value at or above 0.9?
Response: Not fulfilled

Request: Dear colleague, could you confirm whether "GAGGAC" has RBNS R-value at or above 0.9?
Response: Fulfilled

* * *

# Test system: PyIESI-1 RRM domain (Plasmodium yoelii PY17X_0911200 aa 795-956, GST fusion)
# Test Description: RBNS R-value (6-mer enrichment in protein-bound RNA vs input library) (ratio); higher = stronger binding preference; the methods of the paper give 50 / 100 / 500 nM protein instead
# Run Parameters: protein concentration: 250 nM
Over roughly 4,100 sequences, “RBNS R-value (6-mer enrichment in protein-bound RNA vs input library)” has its median near 0.96; the highest 2% begin near 2.4. The sample holds the highest values, similar sequences and a random draw of the others, so the mix is not that of the screen.
Attribute: RBNS R-value
Answer field: number only, no words.

Would you please look over these solved cases?
Biosequence	System Tested	RBNS R-value
ACUGAU	PyIESI-1 RRM domain (Plasmodium yoelii PY17X_0911200 aa 795-956, GST fusion)	4.56
AUCUAA	PyIESI-1 RRM domain (Plasmodium yoelii PY17X_0911200 aa 795-956, GST fusion)	0.647
UCGUGG	PyIESI-1 RRM domain (Plasmodium yoelii PY17X_0911200 aa 795-956, GST fusion)	0.808
GCUGAG	PyIESI-1 RRM domain (Plasmodium yoelii PY17X_0911200 aa 795-956, GST fusion)	1.21
CCUGAC	PyIESI-1 RRM domain (Plasmodium yoelii PY17X_0911200 aa 795-956, GST fusion)	1.32

Request: Write down measured RBNS R-value (PyIESI-1 RRM domain (Plasmodium yoelii PY17X_0911200 aa 795-956, GST fusion)) for this sequence. "CCUGAA"
Response: 1.23

Request: Write down measured RBNS R-value (PyIESI-1 RRM domain (Plasmodium yoelii PY17X_0911200 aa 795-956, GST fusion)) for this sequence. "CCUGAU"
Response: 4.76

Request: Write down measured RBNS R-value (PyIESI-1 RRM domain (Plasmodium yoelii PY17X_0911200 aa 795-956, GST fusion)) for this sequence. "GCUGAC"
Response: 1.21
